Reference source for all entries: patent US10494376B2

Property: log10 IC50; scope: individual molecules
# Tested on: symmetrical dimethylation of arginine (Di-Methyl Histone H4 Arginine 3) in cell line TE11
# assay.details: Revised PRMT5 Biomarker Assay (Di-Methyl Histone H4 Arginine 3 immunofluorescence)
# Assay type: cell-based
# conditions: Homo sapiens, TE-11; TE11 cells, 72 hours, PerkinElmer Envision fluorescence intensity, corrected for Hoechst 33342; read-out: IC50 - plate-reader based
Counter-ions that a name gives are not always drawn.
Use the decimal logarithm of IC50 (nM).

Ask: Name the recorded log10 IC50 of the item O=C(NC[C@@H](O)[C@@H]1Cc2ccccc2CN1)c1ccnc(OC2CCOCC2)c1 [Example 26, trifluoroacetic acid) salt] in your answer.
Reply: 1.18

Ask: Name the recorded log10 IC50 of the item "O=C(NC[C@@H](O)[C@@H]1Cc2ccccc2CN1)c1ccc(C(=O)N2C3CCCC2COC3)cc1" in your answer.
Reply: 0.60

Ask: Name the recorded log10 IC50 of the item "O=C(NC[C@@H](O)[C@@H]1Cc2ccccc2CN1)c1ccccc1" in your answer.
Reply: 3.16

Ask: Name the recorded log10 IC50 of the item CCOc1c(C(=O)NC[C@@H](O)[C@@H]2Cc3ccccc3CN2)ccc(C(=O)N2CCOCC2)c1C [Example 80, hydrochloride] in your answer.
Reply: 0.48

Ask: Name the recorded log10 IC50 of the item O=C(NC[C@@H](O)[C@@H]1Cc2ccccc2CN1)c1ccc(C(=O)N2C3CCC2COC3)cc1F [Example 81, hydrochloride] in your answer.
Reply: 0.48

Ask: Name the recorded log10 IC50 of the item "CCOc1ccccc1C(=O)NC[C@@H](O)[C@@H]1Cc2ccccc2CN1" in your answer.
Reply: 3.37

###

Property: IC50; scope: individual molecules
# System: symmetrical dimethylation of arginine (Di-Methyl Histone H4 Arginine 3) in cell line TE11
# assay.details: Revised PRMT5 Biomarker Assay (Di-Methyl Histone H4 Arginine 3 immunofluorescence)
# Type: cell-based
# conditions: Homo sapiens, TE-11; TE11 cells, 72 hours, PerkinElmer Envision fluorescence intensity, corrected for Hoechst 33342; read-out: IC50 - plate-reader based
# output: number + unit

{"columns": ["molecule", "system.under.test", "IC50"],
 "data": [
  ["CCOc1cc(CC(=O)N2C3CCC2COC3)ccc1C(=O)NC[C@@H](O)[C@@H]1Cc2ccccc2CN1 [Example 74]", "symmetrical dimethylation of arginine (Di-Methyl Histone H4 Arginine 3) in cell line TE11", "5 nM"],
  ["CCOc1cc(C(=O)N2C3CCC2COC3)c(F)cc1C(=O)NC[C@@H](O)[C@@H]1Cc2ccccc2CN1 [Example 69]", "symmetrical dimethylation of arginine (Di-Methyl Histone H4 Arginine 3) in cell line TE11", "3 nM"],
  ["CC(=O)N1CCC(Nc2cc(C(=O)NC[C@@H](O)[C@@H]3Cc4ccccc4CN3)ncn2)CC1 [Example 51]", "symmetrical dimethylation of arginine (Di-Methyl Histone H4 Arginine 3) in cell line TE11", "15 nM"]
]}

Below: the item to evaluate.
Ask: Name the recorded IC50 of the item CC(=O)N1CCC(Oc2cc(C(=O)NC[C@@H](O)[C@@H]3Cc4ccccc4CN3)ccn2)CC1 [Example 102] in your answer.
Reply: 5 nM

###

# system.under.test: Full-length PRMT5 enzyme (NCBI Reference sequence NP_006100.2) co-expressed with His6-MEP50 (Homo sapiens (Human))
# Sequence (O14744 whole entry): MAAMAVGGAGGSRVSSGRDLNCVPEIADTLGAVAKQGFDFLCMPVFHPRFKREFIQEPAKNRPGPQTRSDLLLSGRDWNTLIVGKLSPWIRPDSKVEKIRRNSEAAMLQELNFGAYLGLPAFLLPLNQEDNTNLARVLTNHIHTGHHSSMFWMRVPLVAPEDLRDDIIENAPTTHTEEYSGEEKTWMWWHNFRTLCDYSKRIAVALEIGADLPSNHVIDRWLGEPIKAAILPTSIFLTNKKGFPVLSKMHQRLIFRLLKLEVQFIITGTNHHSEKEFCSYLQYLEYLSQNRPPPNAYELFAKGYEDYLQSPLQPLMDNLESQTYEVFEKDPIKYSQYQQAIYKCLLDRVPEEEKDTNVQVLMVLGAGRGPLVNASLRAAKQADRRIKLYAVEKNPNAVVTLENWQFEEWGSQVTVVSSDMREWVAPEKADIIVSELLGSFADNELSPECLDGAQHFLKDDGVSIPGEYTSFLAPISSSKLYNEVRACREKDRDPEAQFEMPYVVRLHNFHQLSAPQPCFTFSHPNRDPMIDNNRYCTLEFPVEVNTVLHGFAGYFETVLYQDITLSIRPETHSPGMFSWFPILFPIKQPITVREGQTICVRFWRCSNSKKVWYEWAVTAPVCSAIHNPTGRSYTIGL
# Sequence (Q9BQA1 whole entry partner): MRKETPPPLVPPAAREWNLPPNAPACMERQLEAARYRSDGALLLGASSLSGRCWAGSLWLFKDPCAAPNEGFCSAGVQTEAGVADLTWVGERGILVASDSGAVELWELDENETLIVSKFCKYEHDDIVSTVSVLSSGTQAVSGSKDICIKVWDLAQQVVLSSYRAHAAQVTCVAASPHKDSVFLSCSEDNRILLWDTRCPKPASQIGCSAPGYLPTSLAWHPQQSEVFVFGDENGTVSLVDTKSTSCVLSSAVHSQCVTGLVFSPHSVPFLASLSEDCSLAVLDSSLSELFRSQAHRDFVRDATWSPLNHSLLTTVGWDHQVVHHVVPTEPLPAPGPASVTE
# assay.details: Revised PRMT5 Biochemical Assay
# conditions: 1 μM peptide substrate, 1 μM S-Adenosyl methionine, 4 hours at 37 degree Celsius, Transcreener EPIGEN fluorescence polarisation
Where a name gives a salt, the structure may show the parent alone.
quantity.kind: IC50 (nM)
Output spec: scalar in nM, unitless text.

A selection of reference data follows.
{"columns": ["compound", "IC50, nM"],
 "data": [
  ["Cc1ccccc1C(=O)NC[C@@H](O)[C@@H]1Cc2ccccc2CN1 [Example 10]", 22500],
  ["CC(=O)N1CCC(N(C)C(=O)c2ccc(C(=O)NC[C@@H](O)[C@@H]3Cc4ccccc4CN3)cc2)CC1 [Example 19]", 912],
  ["O=C(NC[C@@H](O)[C@@H]1Cc2ccccc2CN1)c1ccc(C(=O)N2CCOCC2)cn1 [Example 29, dihydrochloride salt]", 535]
]}

Ask: Name the recorded IC50 of the item O=C(NC[C@@H](O)[C@@H]1Cc2ccccc2CN1)c1ccc(Cl)nc1 [Example 98, hydrochloride] in your answer.
Reply: 230

Ask: Name the recorded IC50 of the item O=C(NC[C@@H](O)[C@@H]1Cc2ccccc2CN1)c1ccnc(OC2CCNCC2)c1 [Example 21] in your answer.
Reply: 70

Ask: Name the recorded IC50 of the item CCOc1cc(C(=O)N2C3CCC2COC3)ccc1C(=O)NC[C@@H](O)[C@@H]1Cc2cc(C)ccc2CN1 [Example 125, hydrochloride] in your answer.
Reply: 232

Ask: Name the recorded IC50 of the item O=C(NC[C@@H](O)[C@@H]1Cc2ccccc2CN1)c1ccccc1OC(F)(F)F [Example 6] in your answer.
Reply: 45800
